Ref: patent US10336732B2

Tested on: α2 (non-selective)
Assay: In vitro radioligand binding assay, α2 (non-selective), [3H]RX 821002
Parameters: concentration or dose not given beside the values
Conditions: rat cerebral cortex membranes
Tag: True if measured α2 percent inhibition of specific binding is not below 80%, False if it is.

Consider the worked cases shown below.
[
  {
    "molSmiles": "Fc1cccc2c1[C@H]([C@@H]1CCCN1)OCC2",
    "category": "True"
  },
  {
    "molSmiles": "Fc1ccc2c(c1)[C@H]([C@@H]1CCCN1)OCC2",
    "category": "True"
  },
  {
    "molSmiles": "Fc1ccc2c(c1)CCO[C@H]2[C@@H]1CCCN1",
    "category": "True"
  },
  {
    "molSmiles": "Clc1ccc2c(c1)[C@H]([C@@H]1CCCN1)OCC2",
    "category": "True"
  },
  {
    "molSmiles": "Fc1cccc2c1[C@H]([C@@H]1CCN1)OCC2",
    "category": "False"
  }
]

Attention now shifts to the item below.
**Query** Say whether "Fc1ccc2c(c1)CCO[C@H]2[C@@H]1CCN1" shows α2 percent inhibition of specific binding of 80% or more.
**Result** False

###

Tested on: mice
Experiment: Neuropharmacological assay (SmartCube), behavioral signature of compound-treated mice
Format: in vivo
Conditions: i.p. 15 min before behavioral test, most efficacious dose(s) of 3 doses
quantity: AX: anxiolytic (probability that behavioral signature matches class)

[
  {
    "compound": "N#Cc1cccc2c1[C@@H]([C@@H]1CCCN1)OCC2",
    "result": "++ (5% ≤ ++ <25%)"
  },
  {
    "compound": "Fc1ccc2c(c1)CCO[C@H]2[C@@H]1CCCCN1",
    "result": "++ (5% ≤ ++ <25%)"
  },
  {
    "compound": "c1ccc(-c2ccc3c(c2)CCO[C@H]3[C@@H]2CCCN2)nc1",
    "result": "++ (5% ≤ ++ <25%)"
  },
  {
    "compound": "Clc1ccc2c(c1)[C@H]([C@H]1CCCN1)OCC2",
    "result": "+++ (25% ≤ +++ <50%)"
  },
  {
    "compound": "CN1CCC[C@H]1[C@@H]1OCCc2cc(F)ccc21",
    "result": "++ (5% ≤ ++ <25%)"
  },
  {
    "compound": "Fc1cccc2c1[C@H]([C@@H]1CCCN1)OCCC2",
    "result": "+++ (25% ≤ +++ <50%)"
  }
]

**Query** # lookup: AX: anxiolytic (probability that behavioral signature matches class) of "Cc1cccc2c1[C@H]([C@H]1CCCN1)OCCC2"
**Result** ++ (5% ≤ ++ <25%)

**Query** # lookup: AX: anxiolytic (probability that behavioral signature matches class) of "Fc1ccc2c(c1)[C@H]([C@H]1CCN1)OCC2"
**Result** ++ (5% ≤ ++ <25%)

**Query** # lookup: AX: anxiolytic (probability that behavioral signature matches class) of "c1ccc(-c2ccc3c(c2)CCO[C@@H]3[C@@H]2CCCN2)nc1"
**Result** + (LOQ ≤ + <5%)

**Query** # lookup: AX: anxiolytic (probability that behavioral signature matches class) of "Fc1cccc2c1[C@H]([C@@H]1CCN1)OCC2"
**Result** ++ (5% ≤ ++ <25%)

**Query** # lookup: AX: anxiolytic (probability that behavioral signature matches class) of "C[C@@]1([C@@H]2CCCN2)OCc2cc(F)ccc21"
**Result** ++ (5% ≤ ++ <25%)

###

The entries below come with measured 5HT2b percent inhibition of specific binding values attached.
Target: 5-HT2B (Homo sapiens, UniProt P41595)
Construct: expressed in transfected cells; host or cells: CHO cells
Sequence (P41595 whole entry): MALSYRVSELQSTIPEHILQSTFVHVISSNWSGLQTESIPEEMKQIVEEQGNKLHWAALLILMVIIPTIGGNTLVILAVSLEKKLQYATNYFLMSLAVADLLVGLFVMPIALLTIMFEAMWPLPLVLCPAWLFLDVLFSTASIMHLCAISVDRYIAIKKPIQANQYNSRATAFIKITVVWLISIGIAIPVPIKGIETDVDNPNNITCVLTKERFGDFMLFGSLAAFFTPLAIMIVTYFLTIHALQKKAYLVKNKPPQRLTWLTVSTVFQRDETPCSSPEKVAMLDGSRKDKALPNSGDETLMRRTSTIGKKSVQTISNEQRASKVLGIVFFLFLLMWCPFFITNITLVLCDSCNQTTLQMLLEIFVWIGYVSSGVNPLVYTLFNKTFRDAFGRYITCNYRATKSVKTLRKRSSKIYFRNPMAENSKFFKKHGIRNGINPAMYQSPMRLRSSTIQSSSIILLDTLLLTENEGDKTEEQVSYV
Assay: In vitro radioligand binding assay, 5-HT2B, [125I](±)DOI
Design: concentration or dose not given beside the values
Settings: human recombinant (CHO cells)

// below: answered compounds
[
  {
    "compound": "Fc1ccc2c(c1)CCO[C@H]2[C@@H]1CCN1 [Compound I-90]",
    "result": "77%"
  },
  {
    "compound": "Fc1cccc2c1CCO[C@@H]2[C@@H]1CCN1 [Compound I-94]",
    "result": "76%"
  },
  {
    "compound": "Fc1ccc2c(c1)CCO[C@H]2[C@@H]1CCCN1 [Compound I-9]",
    "result": "76%"
  },
  {
    "compound": "Fc1cccc2c1[C@H]([C@@H]1CCCN1)OCC2 [Compound I-1]",
    "result": "79%"
  },
  {
    "compound": "Fc1ccc2c(c1)[C@H]([C@@H]1CCCN1)OCC2 [Compound I-5]",
    "result": "72%"
  },
  {
    "compound": "Fc1cccc2c1CCO[C@@H]2[C@H]1CCN1 [Compound I-96]",
    "result": "58%"
  },
  {
    "compound": "Fc1cccc2c1[C@H]([C@@H]1CCN1)OCC2 [Compound I-83]",
    "result": "83%"
  }
]

// next entry
**Query** # lookup: 5HT2b percent inhibition of specific binding of Clc1ccc2c(c1)[C@H]([C@@H]1CCCN1)OCC2 [Compound I-29]
**Result** 80%

###

System: mice
Experiment: Neuropharmacological assay (SmartCube), behavioral signature of compound-treated mice
Format: in vivo
Settings: i.p. 15 min before behavioral test, most efficacious dose(s) of 3 doses
quantity: AX: anxiolytic (probability that behavioral signature matches class)

// below: answered compounds
[
  {
    "compound": "N#Cc1ccc2c(c1)CCO[C@@H]2[C@H]1CCCN1 [Compound I-46]",
    "result": "++ (5% ≤ ++ <25%)"
  },
  {
    "compound": "Fc1ccc2c(c1)CO[C@H]2[C@H]1CCCN1 [Compound I-121]",
    "result": "+++ (25% ≤ +++ <50%)"
  },
  {
    "compound": "Fc1cccc2c1CCO[C@@H]2[C@H]1CCCN1 [Compound I-16]",
    "result": "++ (5% ≤ ++ <25%)"
  },
  {
    "compound": "Fc1ccc2c(c1)CO[C@@H]2[C@H]1CCN1 [Compound I-127]",
    "result": "++ (5% ≤ ++ <25%)"
  }
]

**Query** # lookup: AX: anxiolytic (probability that behavioral signature matches class) of c1cc(-c2ccc3c(c2)CCO[C@H]3[C@@H]2CCCN2)on1 [Compound I-56]
**Result** ++ (5% ≤ ++ <25%)

**Query** # lookup: AX: anxiolytic (probability that behavioral signature matches class) of N#Cc1cccc2c1[C@H]([C@@H]1CCCN1)OCC2 [Compound I-38]
**Result** ++ (5% ≤ ++ <25%)

**Query** # lookup: AX: anxiolytic (probability that behavioral signature matches class) of Fc1cccc2c1CCO[C@@H]2[C@H]1CCN1 [Compound I-96]
**Result** ++ (5% ≤ ++ <25%)

**Query** # lookup: AX: anxiolytic (probability that behavioral signature matches class) of CC1(C)CN[C@H]([C@@H]2OCCc3ccccc32)C1 [Compound I-59]
**Result** ++ (5% ≤ ++ <25%)

**Query** # lookup: AX: anxiolytic (probability that behavioral signature matches class) of Fc1cccc2c1[C@H]([C@H]1CCCN1)OCC2 [Compound I-4]
**Result** +++ (25% ≤ +++ <50%)

**Query** # lookup: AX: anxiolytic (probability that behavioral signature matches class) of c1ccc2c(c1)CCO[C@@H]2C1CNC1 [Compound I-114, (R)-3-(isochroman-1-yl)azetidine]
**Result** ++ (5% ≤ ++ <25%)

**Query** # lookup: AX: anxiolytic (probability that behavioral signature matches class) of COc1cccc2c1[C@H]([C@@H]1CCCN1)OCC2 [Compound I-47]
**Result** ++ (5% ≤ ++ <25%)

###

Tested on: mice
Experiment: Neuropharmacological assay (SmartCube), behavioral signature of compound-treated mice
Assay type: in vivo
Details: i.p. 15 min before behavioral test, most efficacious dose(s) of 3 doses
Experimental: Neurosci. […] As reported in Roberds, because psychiatric diseases generally result from disorders of cell-cell communication or circuitry, intact systems are useful in detecting improvement in disease-relevant endpoints. […] Provided compounds were dissolved in a mixture of Pharmasolve™ (N-methyl-2-pyrrolidone), polyethylene glycol and propylene glycol, and were injected i.p. 15 min. before the behavioral test. […] For each behavioral effect measured, results for the most efficacious dose(s) are presented.
quantity: AX: anxiolytic (probability that behavioral signature matches class)

// below: answered compounds
[
  {
    "compound": "Fc1ccc2c(c1)[C@@H](F)CO[C@H]2[C@@H]1CCCN1",
    "result": "++ (5% ≤ ++ <25%)"
  },
  {
    "compound": "c1ccc2c(c1)CCO[C@@H]2[C@H]1CCN1 [Compound I-81, (R)-2-((S)-isochroman-1-yl)azetidine]",
    "result": "+++ (25% ≤ +++ <50%)"
  },
  {
    "compound": "c1cc2c(c3c1CO[C@H]3[C@@H]1CCCN1)OCO2",
    "result": "++ (5% ≤ ++ <25%)"
  },
  {
    "compound": "c1ccc2c(c1)CCCO[C@@H]2[C@H]1CCCN1",
    "result": "++ (5% ≤ ++ <25%)"
  },
  {
    "compound": "Fc1ccc2c(c1)[C@H](F)CO[C@H]2[C@@H]1CCCN1",
    "result": "++ (5% ≤ ++ <25%)"
  },
  {
    "compound": "COc1cccc2c1[C@@H]([C@@H]1CCCN1)OCC2",
    "result": "++ (5% ≤ ++ <25%)"
  }
]

**Query** # lookup: AX: anxiolytic (probability that behavioral signature matches class) of "N#Cc1ccc2c(c1)CCO[C@@H]2[C@@H]1CCCN1"
**Result** +++ (25% ≤ +++ <50%)

**Query** # lookup: AX: anxiolytic (probability that behavioral signature matches class) of "CC1(C)CN[C@@H]([C@@H]2OCCc3ccccc32)C1"
**Result** ++ (5% ≤ ++ <25%)

**Query** # lookup: AX: anxiolytic (probability that behavioral signature matches class) of "c1cc2c(c3c1CO[C@@H]3[C@@H]1CCCN1)OCO2"
**Result** +++ (25% ≤ +++ <50%)

**Query** # lookup: AX: anxiolytic (probability that behavioral signature matches class) of Cc1ccc2c(c1)[C@H](C1CNC1)OCC2 [Compound I-117, (S)-3-(7-methylisochroman-1-yl)azetidine]
**Result** ++ (5% ≤ ++ <25%)

**Query** # lookup: AX: anxiolytic (probability that behavioral signature matches class) of "Cc1ccc2c(c1)[C@@H]([C@@H]1CCCN1)OCC2"
**Result** ++ (5% ≤ ++ <25%)

**Query** # lookup: AX: anxiolytic (probability that behavioral signature matches class) of "N#Cc1ccc2c(c1)CCO[C@H]2[C@@H]1CCCN1"
**Result** +++ (25% ≤ +++ <50%)

**Query** # lookup: AX: anxiolytic (probability that behavioral signature matches class) of "Cc1cccc2c1[C@@H]([C@@H]1CCCN1)OCCC2"
**Result** ++ (5% ≤ ++ <25%)

**Query** # lookup: AX: anxiolytic (probability that behavioral signature matches class) of "Fc1ccc2c(c1)[C@H]([C@H]1CCCN1)OCC2"
**Result** ++ (5% ≤ ++ <25%)

**Query** # lookup: AX: anxiolytic (probability that behavioral signature matches class) of "Fc1ccc2c(c1)[C@@H]([C@H]1CCN1)OCC2"
**Result** +++ (25% ≤ +++ <50%)

**Query** # lookup: AX: anxiolytic (probability that behavioral signature matches class) of "Fc1ccc2c(c1)[C@H]([C@@H]1CCN1)OCC2"
**Result** +++ (25% ≤ +++ <50%)

**Query** # lookup: AX: anxiolytic (probability that behavioral signature matches class) of "Fc1ccc2c(c1)[C@H]([C@H]1CCCN1)OCCC2"
**Result** ++ (5% ≤ ++ <25%)

**Query** # lookup: AX: anxiolytic (probability that behavioral signature matches class) of "CC1(C)CN[C@H]([C@H]2OCCc3ccccc32)C1"
**Result** ++ (5% ≤ ++ <25%)

**Query** # lookup: AX: anxiolytic (probability that behavioral signature matches class) of "Fc1ccc2c(c1)CCO[C@H]2[C@@H]1CCCN1"
**Result** ++ (5% ≤ ++ <25%)

**Query** # lookup: AX: anxiolytic (probability that behavioral signature matches class) of "FC1(F)CO[C@@H]([C@@H]2CCCN2)c2ccccc21"
**Result** ++ (5% ≤ ++ <25%)

**Query** # lookup: AX: anxiolytic (probability that behavioral signature matches class) of "Fc1ccc2c(c1)CCO[C@H]2[C@H]1CCCN1"
**Result** ++ (5% ≤ ++ <25%)

**Query** # lookup: AX: anxiolytic (probability that behavioral signature matches class) of "c1cc2c(c3c1CCO[C@H]3[C@@H]1CCN1)OCO2"
**Result** ++ (5% ≤ ++ <25%)

**Query** # lookup: AX: anxiolytic (probability that behavioral signature matches class) of "Fc1ccc2c(c1)CCO[C@@H]2[C@@H]1CCCCN1"
**Result** ++ (5% ≤ ++ <25%)
